Reference source for all entries: patent US20210238276A1

A collection of binders and their measured % of binding to wild type GLUT4
# targetUnderTest: T1, hsGLUT4 N304A (human, UniProt P14672 1-509)
# T1 sequence: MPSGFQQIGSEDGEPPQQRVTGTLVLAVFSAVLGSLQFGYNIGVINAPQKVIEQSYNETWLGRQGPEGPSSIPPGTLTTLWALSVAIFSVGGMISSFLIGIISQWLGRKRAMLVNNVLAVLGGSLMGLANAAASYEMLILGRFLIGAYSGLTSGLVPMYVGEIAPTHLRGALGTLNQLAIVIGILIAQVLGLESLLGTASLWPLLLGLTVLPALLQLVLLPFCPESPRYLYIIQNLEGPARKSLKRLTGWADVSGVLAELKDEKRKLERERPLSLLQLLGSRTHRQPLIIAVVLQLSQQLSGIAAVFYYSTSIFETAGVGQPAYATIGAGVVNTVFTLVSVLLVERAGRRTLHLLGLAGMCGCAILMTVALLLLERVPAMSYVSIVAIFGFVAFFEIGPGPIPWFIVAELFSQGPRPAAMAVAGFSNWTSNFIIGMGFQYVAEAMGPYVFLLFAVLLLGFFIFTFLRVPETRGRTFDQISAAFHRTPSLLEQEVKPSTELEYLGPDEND
# method: flow cytometry, alanine-scan library in HEK-293T
# Protocol: Because of the state-dependence of the isolated MAbs, we next wished to understand the mechanism by which each MAb could recognize GLUT4 in its different conformations. The residues required for binding of each MAb were determined using shotgun mutagenesis comprehensive alanine scanning (Davidson E & Doranz B J (2014) A High-Throughput Shotgun Mutagenesis Approach to Mapping B-cell Antibody Epitopes. Immunology, which is hereby incorporated by reference in its entirety). […]

These solved cases illustrate the format of a correct answer.
binder	% of binding to wild type GLUT4
AB101 (scFv, Chicken-derived clone used as a control; the four lead clones were tested as scFv-human IgG1 Fc; also called MAb AB101) scFv: ALTQPSSVSANPGETVKITCSGSSNSYGWYQQKSPGSAPVTVIYYNDKRPSDIPSRFSGSKSDSTHTLTITGVRAEDEAVYFCGSYDSTYVGIFGAGTTLTVLGQSSRSSGGGGSSGGGGSAVTLDESGGGLQTPGGTLSLVCKASGFTFSSNAMGWVRQAPGKGLEWVAGISSDGRYTKYGSAVKGRATISRDNGQSTVRLQLNNLRAEDTGTYFCAKAFGNNYRRIYAGQIDAWGHGTEVIVSS	145%
AB105 (Fc fusion, Bivalent scFv-Fc; also called MAb AB105; not shown: Fc fragment of human IgG1, cloned in frame with the scFv) scFv: ALTQPSSVSANPGETVEITCSGDSSYYGWYQQKSPGSAPVTVIYANTNRPSDIPSRFSGSASGSTATLTITGVQAEDEAVYYCGSADSTYAGIFGAGTTLTVLGQSSRSSGGGGSSGGGGSAVTLDESGGGLQTPGGALSLICKASGFTFSSYTMNWVRQAPGKGLEWVGVISNSGRTTNYGAAVQGRATISRDNGQSTVRLQLNNLRAEDTGTYYCAKSSASASCAWWAGRSYPCSANRIDAWGHGTEVIVSS	11%
AB111 (Fc fusion, Bivalent scFv-Fc; also called MAb AB111; not shown: Fc fragment of human IgG1, cloned in frame with the scFv) scFv: ALTQPSSVSANPGETVKITCSGSGSWYGWFQQKSPGSAPVTVIYSNDKRPSDIPSRFSGSKSGSTSTLTITGVQVEDEAVYYCGNWDIFGAGTTLTVLGQSSRSSGGGGSSGGGGSAVTLDESGGGLQTPGGALSLVCKASGFTFSSHGMGWVRQAPGKGLEWVASISTGRYTFYAPAVKGRATISRDNGQSTVRLQLNNLRAEDTATYYCTKCAGLNGCGGGEIDAWGHGTEVIVSS	125%

Please report % of binding to wild type GLUT4 for the following binder: AB108 (Fc fusion, Bivalent scFv-Fc; also called MAb AB108; not shown: Fc fragment of human IgG1, cloned in frame with the scFv) scFv: ALTQPSSVSANLGGTVKITCSGSSGSYGWYQQKAPGSAPVTLIYRNDKRPSDIPSRFSGSESGSTGTLTITGVQAEDEAVYFCGGYDSSAGYAAFGAGTTLTVLGQSSRSSGGGGSSGGGGSAVTLDESGGGLQTPGGALSLVCKASGFTFSSHGMGWVRQAPGKGLEWVGSISTGRYTFYAPAVKGRATISRDNGQSTLRLQLNNLRAEDTGTYYCTKCAGLNGCGGGEIDAWGHGTEVIVSS
72%
